Origin of measurements: paper PMC10663500

Target: T1, mouse programmed cell death protein 1 Fc fusion protein (mPD-1-Fc), mPD-1 C60S (aa 25-167) (Mus musculus, UniProt Q02242, stabilised)
T1 construct: not cleaved; source: Expi293F, purified (Protein A, SEC; dimeric fraction); not shown: Fc (human), C-terminal, kept
Experiment: SPR; Carterra LSA; Fab from the ammonium sulfate precipitate of the culture supernatant immobilised on a NiHC200M chip; hPD-1 (1-1024 nM) or mPD-1-Fc (4-1024 nM) as analyte, fourfold dilution series, no regeneration; HBS-EP pH 7.4, 25 °C; medians over the spots of a construct, KD = koff/kon
Details: one partner purified
Give Kd for every item shown.
Report as a plain number; the unit nM is understood.

Task: Fill in the blank: the reported Kd of toripalimab Fab L.L101D (Fab, V domains shown, as the heavy chain of Sm3; light chain of Sm3 with this change; numbers count from the chain's first residue; source: Brevibacillus, culture supernatant (ammonium sulfate precipitate); not shown: 6xHis, C-terminal, kept; 6xHN, C-terminal, kept) VH: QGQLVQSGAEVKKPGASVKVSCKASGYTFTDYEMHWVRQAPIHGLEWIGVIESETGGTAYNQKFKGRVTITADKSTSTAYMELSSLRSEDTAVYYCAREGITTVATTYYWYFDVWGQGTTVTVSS VL: DVVMTQSPLSLPVTLGQPASISCRSSQSIVHSNGNTYLEWYLQKPGQSPQLLIYKVSNRFSGVPDRFSGSGSGTDFTLKISRVEAEDVGVYYCFQGSHVPDTFGQGTKLEIK is ____.
Result: 172

Task: # repeat for toripalimab Fab H.E52Y (Fab, V domains shown, heavy chain of Sm3 with this change; numbers count from the chain's first residue; as the light chain of Sm3; source: Brevibacillus, culture supernatant (ammonium sulfate precipitate); not shown: 6xHis, C-terminal, kept; 6xHN, C-terminal, kept) VH: QGQLVQSGAEVKKPGASVKVSCKASGYTFTDYEMHWVRQAPIHGLEWIGVIYSETGGTAYNQKFKGRVTITADKSTSTAYMELSSLRSEDTAVYYCAREGITTVATTYYWYFDVWGQGTTVTVSS VL: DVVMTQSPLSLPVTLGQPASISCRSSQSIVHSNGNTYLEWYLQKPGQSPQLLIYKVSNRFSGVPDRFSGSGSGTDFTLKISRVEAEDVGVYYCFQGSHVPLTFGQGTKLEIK
Result: 600

Task: # repeat for toripalimab Fab H.V114A (Fab, V domains shown, heavy chain of Sm3 with this change; numbers count from the chain's first residue; as the light chain of Sm3; source: Brevibacillus, culture supernatant (ammonium sulfate precipitate); not shown: 6xHis, C-terminal, kept; 6xHN, C-terminal, kept) VH: QGQLVQSGAEVKKPGASVKVSCKASGYTFTDYEMHWVRQAPIHGLEWIGVIESETGGTAYNQKFKGRVTITADKSTSTAYMELSSLRSEDTAVYYCAREGITTVATTYYWYFDAWGQGTTVTVSS VL: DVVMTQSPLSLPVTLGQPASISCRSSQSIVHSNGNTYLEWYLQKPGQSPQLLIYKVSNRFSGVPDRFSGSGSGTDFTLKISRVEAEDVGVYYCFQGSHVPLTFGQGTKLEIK
Result: 201
